B1: glmS ribozyme (parent)
chain: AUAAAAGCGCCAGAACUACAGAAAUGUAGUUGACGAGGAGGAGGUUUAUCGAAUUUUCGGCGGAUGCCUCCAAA

- Variants of: B1
- measurement-protocol: self-cleavage kobs at 2500 uM GlcN6P; higher = faster cleavage; RNA array
- condition-details: with glucosamine-6-phosphate
Variants at the floor of the assay were thinned out.
Each record gets a class by self-cleavage kobs at 2500 uM GlcN6P: bottom: < 0.0001 s⁻¹; middle: ≥ 0.0001 s⁻¹ and < 0.0008 s⁻¹; top: ≥ 0.0008 s⁻¹

>>> label_value("A33C G40U G51U U54A")
"bottom"
>>> label_value("G7C G29C")
"bottom"
>>> label_value("U30G U45C")
"middle"
>>> label_value("C10A A42G U55G C67U")
"bottom"
>>> label_value("A53U U56C C71U")
"middle"
>>> label_value("A39G G40C C67U")
"bottom"
>>> label_value("U30A C50G U56A C67U")
"bottom"
>>> label_value("U30C A53U U57G A64C U69G")
"middle"
>>> label_value("A14G U46G")
"top"
>>> label_value("A33G G38U G44A C67G C71U")
"bottom"
>>> label_value("A6G A36G U56A")
"bottom"
>>> label_value("G9C U57A")
"bottom"
>>> label_value("A48C G63U")
"bottom"
>>> label_value("U30G A52C")
"bottom"
>>> label_value("A12U U69G C70A")
"bottom"
>>> label_value("U45A U65G")
"top"
>>> label_value("A12C A14U A53C")
"bottom"
>>> label_value("A12G G41U G51C C71A")
"bottom"
>>> label_value("G44A G66A")
"top"
>>> label_value("U45G U57G C68A C70A")
"bottom"
>>> label_value("G43C C68U")
"middle"
>>> label_value("A15G U55G C71G")
"top"
